Each record here notes measured EC50.
- assay_target: THR beta (Homo sapiens, UniProt P10828)
- Construct: expressed in transfected cells; host or cells: HEK293T (ATCC CRL-3216)
- Sequence (P10828 whole entry): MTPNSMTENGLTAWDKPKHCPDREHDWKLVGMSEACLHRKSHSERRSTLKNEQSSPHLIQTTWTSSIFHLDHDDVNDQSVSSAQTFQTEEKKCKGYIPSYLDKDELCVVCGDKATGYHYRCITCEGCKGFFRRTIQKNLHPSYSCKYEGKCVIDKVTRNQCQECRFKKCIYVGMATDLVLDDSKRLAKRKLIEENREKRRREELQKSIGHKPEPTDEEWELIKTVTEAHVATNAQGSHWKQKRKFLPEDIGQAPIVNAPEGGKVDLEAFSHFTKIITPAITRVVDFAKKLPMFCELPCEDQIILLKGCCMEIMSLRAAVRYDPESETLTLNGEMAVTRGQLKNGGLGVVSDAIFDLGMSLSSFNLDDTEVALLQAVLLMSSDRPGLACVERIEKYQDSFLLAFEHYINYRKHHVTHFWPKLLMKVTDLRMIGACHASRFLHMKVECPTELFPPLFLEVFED
- Sequence (P19793 whole entry partner): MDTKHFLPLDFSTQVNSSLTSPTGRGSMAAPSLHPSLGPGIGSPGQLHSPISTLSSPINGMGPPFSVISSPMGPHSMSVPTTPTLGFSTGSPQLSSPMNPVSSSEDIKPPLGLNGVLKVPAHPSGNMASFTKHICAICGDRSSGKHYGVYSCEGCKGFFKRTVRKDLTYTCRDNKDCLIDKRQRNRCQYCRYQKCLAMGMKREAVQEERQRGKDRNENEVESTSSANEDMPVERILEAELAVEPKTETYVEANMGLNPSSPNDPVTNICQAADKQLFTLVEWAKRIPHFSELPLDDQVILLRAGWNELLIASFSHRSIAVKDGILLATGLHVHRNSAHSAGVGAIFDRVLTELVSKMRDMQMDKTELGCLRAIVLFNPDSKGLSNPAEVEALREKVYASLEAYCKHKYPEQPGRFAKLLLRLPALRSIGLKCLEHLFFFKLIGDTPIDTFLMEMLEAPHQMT
- experimental_details: HEK293T THR beta/RXR luciferase reporter assay (Assay 2)
- Type: cell-based
- protocol_conditions: THR-beta, HEK293T reporter assay; read-out: Activity category Assay 2 (EC50, THR-beta agonist)

Recorded results for 3 molecules are shown here.
# lookup: EC50 of Cc1cc(-n2nc(C#N)c(=O)[nH]c2=O)cc(C)c1Cc1ccc2[nH]cc(C(C)C)c2n1 [Compound 31]
250 to 1000 nM

Subsequent entry: CC(C)c1cc(Oc2c(Cl)cc(-c3nn(C)c(=O)[nH]c3=O)cc2Cl)n[nH]c1=O [Compound 16]
50 to 250 nM

Further, for Cc1cc(-n2nc(N)c(=O)[nH]c2=O)cc(C)c1Cc1ccc2[nH]cc(C(C)C)c2n1 [Compound 55] ?
< 50 nM

Next:
Which EC50 value belongs to Nc1nn(-c2cc(Cl)c(Oc3cc(Cc4ccc(=O)[nH]n4)c(=O)[nH]n3)c(Cl)c2)c(=O)[nH]c1=O [Compound 160] ?
> 10000 nM
